Test system: DeltatarO mutant
Assay: S. aureus survival, RN4220 and DeltatarO strains – OD600, teichoic acid synthesis inhibitors, primary screen (AID 463173)
Settings: S. aureus RN4220 wild type/DeltatarO growth, OD600, 18 h, screened at 18.75 µg/mL (by protocol)
In all, about 52,000 compounds went through this assay and about 4,300 (8.3%) were called active. No stated cut-off is given here; in the data, active means survival mostly below about 52% (no sharp cut-off); inactive means mostly above about 56%. This is one part of a sample in which actives are shown more often than they occur.
Labels: active, inactive

> print(dat)
                            substance.smiles  target.or.test.system  category
 1  CC(=O)c1ccc(NC(=O)c2cn(-c3ccccc3)nc2-c2ccc(Br)cc2)cc1       DeltatarO mutant  inactive
 2  Cc1ccc(Cn2cc(C(=O)c3ccc(C)cc3)c(=O)c3ccc(C)nc32)cc1       DeltatarO mutant    active
 3  COc1ccc(NC(=O)c2cn(-c3ccccc3)nc2-c2ccc(C)cc2)cc1       DeltatarO mutant  inactive
 4    O=C(N/N=C/c1ccco1)C1c2ccccc2Oc2ccccc21       DeltatarO mutant  inactive
 5      COCCCNc1nc2c(-c3ccccc3)nnn2c2ccccc12       DeltatarO mutant  inactive
 6  Cc1cc(C)c(NC(=O)C2CCN(c3nn4c(=O)cc(C)nc4s3)CC2)c(C)c1       DeltatarO mutant  inactive
 7  Cc1ccc(CNC(=O)Cn2cc(C(=O)c3ccc(F)cc3)c(=O)c3ccc(C)nc32)cc1       DeltatarO mutant    active
 8  O=C(Nc1ccc(-c2cc(C(F)(F)F)nn2-c2ccccc2)cc1)c1cccc(F)c1       DeltatarO mutant    active
 9  Cc1ccc(C(=O)c2cn(Cc3cccc(C)c3)c3nc(C)ccc3c2=O)cc1       DeltatarO mutant  inactive
10  Cc1ccc(C(=O)c2cn(Cc3cccc(Cl)c3)c3nc(C)ccc3c2=O)cc1       DeltatarO mutant    active
11  COc1cccc(-c2nc(SCC(=O)NC3CCCC3)c(-c3ccc(C)cc3)[nH]2)c1       DeltatarO mutant  inactive
12  COC(=O)c1nc(C(=O)OC)c(C(=O)OC)nc1C(=O)OC       DeltatarO mutant  inactive
13  Cc1ccc(C(=O)c2cn(Cc3ccc(F)cc3)c3nc(C)ccc3c2=O)cc1       DeltatarO mutant  inactive
14  CCc1ccc(C(=O)c2cn(CC(=O)NCc3ccc(C)cc3)c3nc(C)ccc3c2=O)cc1       DeltatarO mutant  inactive
15  COc1ccccc1C(=O)NC(=O)Nc1ccc(-c2cc(C(F)(F)F)nn2-c2ccccc2)cc1       DeltatarO mutant    active
16  Cc1ccc(C(=O)c2cn(Cc3ccc(Cl)cc3)c3nc(C)ccc3c2=O)cc1       DeltatarO mutant  inactive
17  O=C(NC1CCCC1)c1ccc2c(=O)n(Cc3ccccc3)c(SCc3cccc(F)c3)nc2c1       DeltatarO mutant  inactive
18  O=C(NC(=O)c1cccc(F)c1)Nc1ccc(-c2cc(C(F)(F)F)nn2-c2ccccc2)cc1       DeltatarO mutant  inactive
19  COc1ccccc1NC(=O)c1cn(-c2ccccc2)nc1-c1ccccc1       DeltatarO mutant  inactive
20     CCc1nnc2c(NCc3cccc(OC)c3)nc3ccccc3n12       DeltatarO mutant  inactive
21  CCOC(=O)c1ccc(NC(=O)c2cn(-c3ccccc3)nc2-c2ccc(Br)cc2)cc1       DeltatarO mutant  inactive

Values were extracted from PubChem BioAssay AID463173.
